Measured clearance values are reported for all entries that follow.
assay: Clearance in Sprague-Dawley rat at 2 mg/kg, iv and 5 mg/kg, po; type: ADME, organism-based; conditions: in vivo

{"STRUCTURE_SMILES": "CCCCCCOC(=O)N1CCN(C(=O)[C@H](CCC(=O)O)NC(=O)c2cc(OC3CCNCC3)cc(-c3ccccc3)n2)CC1", "clearance": "150 mL/min/kg"}
{"STRUCTURE_SMILES": "CCCCCOC(=O)N1CCN(C(=O)[C@H](CCC(=O)O)NC(=O)c2cc(CCCN(C)C)cc(-c3ccccc3)n2)CC1", "clearance": "38 mL/min/kg"}
{"STRUCTURE_SMILES": "CCCCCOC(=O)N1CCN(C(=O)[C@H](CCC(=O)O)NC(=O)c2cc(OCC3CCN(C)CC3)cc(-c3ccccc3)n2)CC1", "clearance": "130 mL/min/kg"}
{"STRUCTURE_SMILES": "CCCCCOC(=O)N1CCN(C(=O)[C@H](CCC(=O)O)NC(=O)c2cc(C(=O)N3CCOCC3)cc(-c3ccccc3)n2)CC1", "clearance": "51 mL/min/kg"}
{"STRUCTURE_SMILES": "CCCCCOC(=O)N1CCN(C(=O)[C@H](CCC(=O)O)NC(=O)c2cc(OCC3CCNCC3)cc(-c3ccccc3)n2)CC1", "clearance": "62 mL/min/kg"}
{"STRUCTURE_SMILES": "CCCCCOC(=O)N1CCN(C(=O)[C@H](CCC(=O)O)NC(=O)c2cc(OC3CCN(CCOC)CC3)cc(-c3ccccc3)n2)CC1", "clearance": "94 mL/min/kg"}

----------
assay: Antiplatelet aggregation activity against adenosine diphosphate-induced human platelet rich plasma assessed as inhibition of platelet aggregation by turbidimetric method; assay type: functional; settings: Homo sapiens, Platelet, Plasma
pIC50: −log10 of the molar value.
ASSAY_READOUT: pIC50

{"STRUCTURE_SMILES": "Cc1cccc(N2CCN(C(=O)[C@H](CCC(=O)O)NC(=O)c3cc(-c4ccccc4)cc(-c4ccccc4)n3)CC2)c1", "VALUE_OBSERVED": "< 4.00"}
{"STRUCTURE_SMILES": "CCOC(=O)N1CCN(C(=O)CNC(=O)c2cc(-c3ccccc3)cc(-c3ccccc3)n2)CC1", "VALUE_OBSERVED": "< 4.30"}
{"STRUCTURE_SMILES": "CCOC(=O)N1CCN(C(=O)[C@H](CCC(=O)O)NC(=O)c2cc(-c3ccccc3)cc(-c3ccccc3)c2)CC1", "VALUE_OBSERVED": "< 4.00"}

----------
target: UniProt:Q9H244; assay: Displacement of [33P]ADP from human recombinant P2Y12 receptor expressed in CHO cells
Sequence (Q9H244 whole entry): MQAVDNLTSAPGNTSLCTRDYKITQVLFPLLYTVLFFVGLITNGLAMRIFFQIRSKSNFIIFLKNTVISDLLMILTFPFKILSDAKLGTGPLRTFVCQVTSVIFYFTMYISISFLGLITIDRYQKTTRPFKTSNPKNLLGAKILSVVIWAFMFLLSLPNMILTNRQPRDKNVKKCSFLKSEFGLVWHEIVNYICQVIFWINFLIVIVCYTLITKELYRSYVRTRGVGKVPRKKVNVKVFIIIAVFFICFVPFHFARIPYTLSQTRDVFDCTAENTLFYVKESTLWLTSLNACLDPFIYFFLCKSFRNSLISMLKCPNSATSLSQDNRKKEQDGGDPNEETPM
Checkbox rule: Ki lower than 6 nM = Condition met; Ki not lower than 6 nM = Condition not met.

{"STRUCTURE_SMILES": "CCCS(=O)(=O)N1CCN(C(=O)[C@H](CCC(=O)O)NC(=O)c2cccc(-c3ccccc3)n2)CC1", "ASSIGNED_LABEL": "Condition not met"}
{"STRUCTURE_SMILES": "CCCCCOC(=O)N1CCN(C(=O)[C@H](CCC(=O)O)NC(=O)c2cc(NC(=O)CN3CCOCC3)cc(-c3ccccc3)n2)CC1", "ASSIGNED_LABEL": "Condition met"}
{"STRUCTURE_SMILES": "Cc1cccc(N2CCN(C(=O)[C@H](CCC(=O)O)NC(=O)c3cc(-c4ccccc4)cc(-c4ccccc4)c3)CC2)c1", "ASSIGNED_LABEL": "Condition not met"}
{"STRUCTURE_SMILES": "CCCCCOC(=O)N1CCN(C(=O)[C@H](CCC(=O)O)NC(=O)c2cc(C(=O)N3CCCCC3)cc(-c3ccccc3)n2)CC1", "ASSIGNED_LABEL": "Condition met"}
{"STRUCTURE_SMILES": "CCOC(=O)N1CCN(C(=O)[C@H](CCC(=O)O)NC(=O)c2cc(OCCCOC)cc(-c3ccccc3)n2)CC1", "ASSIGNED_LABEL": "Condition not met"}
{"STRUCTURE_SMILES": "CCCCCOC(=O)N1CCN(C(=O)[C@H](CCC(=O)O)NC(=O)c2cc(OCC3CCN(CCOC)CC3)cc(-c3ccccc3)n2)CC1", "ASSIGNED_LABEL": "Condition met"}
{"STRUCTURE_SMILES": "CCCCCOC(=O)N1CCN(C(=O)[C@H](CCC(=O)O)NC(=O)c2cc(NC(=O)N3CCCCC3)cc(-c3ccccc3)n2)CC1", "ASSIGNED_LABEL": "Condition met"}
{"STRUCTURE_SMILES": "CCCCCOC(=O)N1CCN(C(=O)[C@H](CCC(=O)O)NC(=O)c2cc(OCCC)cc(-c3ccccc3)n2)CC1", "ASSIGNED_LABEL": "Condition not met"}
{"STRUCTURE_SMILES": "CCCCCOC(=O)N1CCN(C(=O)[C@H](CCC(=O)O)NC(=O)c2cc(NC(=O)NCC(=O)N(C)C)cc(-c3ccccc3)n2)CC1", "ASSIGNED_LABEL": "Condition met"}
{"STRUCTURE_SMILES": "O=C(O)CC[C@H](NC(=O)c1cccc(-c2ccccc2)n1)C(=O)N1CCN(S(=O)(=O)c2ccccc2)CC1", "ASSIGNED_LABEL": "Condition not met"}
{"STRUCTURE_SMILES": "CCCCOC(=O)N1CCN(C(=O)[C@H](CCC(=O)O)NC(=O)c2cc(OC(=O)N3CCOCC3)cc(-c3ccccc3)n2)CC1", "ASSIGNED_LABEL": "Condition met"}
{"STRUCTURE_SMILES": "CCCCCOC(=O)N1CCN(C(=O)[C@H](CCC(=O)O)NC(=O)c2cc(NC(=O)N3CCN(C)CC3)cc(-c3ccccc3)n2)CC1", "ASSIGNED_LABEL": "Condition met"}
{"STRUCTURE_SMILES": "CCCCCOC(=O)N1CCN(C(=O)[C@H](CCC(=O)O)NC(=O)c2cc(NC(=O)OCC)cc(-c3ccccc3)n2)CC1", "ASSIGNED_LABEL": "Condition not met"}

Data provenance is ChEMBL document CHEMBL1157562.
